# TEST CONTEXT: in 2-butanone, 328.15 K

{"columns": ["CHEMICAL STRUCTURE", "solubility (mole fraction)"],
 "data": [
  ["O=c1[nH]c2ccccc2c(=O)o1", 0.0153]
]}

---

# TEST CONTEXT: in methyl acetate, 293.15 K
PROPERTY NAME: solubility (mole fraction)

{"columns": ["CHEMICAL STRUCTURE", "QUANTITATIVE RESULT"],
 "data": [
  ["O=c1[nH]c2ccccc2c(=O)o1", 0.00464]
]}

---

# TEST CONTEXT: in ethyl acetate, 293.15 K

{"columns": ["CHEMICAL STRUCTURE", "solubility (mole fraction)"],
 "data": [
  ["O=c1[nH]c2ccccc2c(=O)o1", 0.00352]
]}

---

# TEST CONTEXT: in isopropyl acetate, 288.15 K
PROPERTY NAME: solubility (mole fraction)

{"columns": ["CHEMICAL STRUCTURE", "QUANTITATIVE RESULT"],
 "data": [
  ["O=c1[nH]c2ccccc2c(=O)o1", 0.00185]
]}

---

# TEST CONTEXT: in acetonitrile, 298.15 K

{"columns": ["CHEMICAL STRUCTURE", "solubility (mole fraction)"],
 "data": [
  ["O=c1[nH]c2ccccc2c(=O)o1", 0.00374]
]}

---

# TEST CONTEXT: in n-propanol, 323.15 K
PROPERTY NAME: solubility (mole fraction)

{"columns": ["CHEMICAL STRUCTURE", "RESULT"],
 "data": [
  ["O=c1[nH]c2ccccc2c(=O)o1", 0.00341]
]}

---

# TEST CONTEXT: in isopropanol, 298.15 K

{"columns": ["CHEMICAL STRUCTURE", "solubility (mole fraction)"],
 "data": [
  ["O=c1[nH]c2ccccc2c(=O)o1", 0.00144]
]}

---

# TEST CONTEXT: in ethanol, 328.15 K
PROPERTY NAME: solubility (mole fraction)

{"columns": ["CHEMICAL STRUCTURE", "QUANTITATIVE RESULT"],
 "data": [
  ["O=c1[nH]c2ccccc2c(=O)o1", 0.00439]
]}

---

# TEST CONTEXT: in ethyl acetate, 323.15 K
PROPERTY NAME: solubility (mole fraction)

{"columns": ["CHEMICAL STRUCTURE", "PROPERTY NAME", "QUANTITATIVE RESULT"],
 "data": [
  ["O=c1[nH]c2ccccc2c(=O)o1", "solubility (mole fraction)", 0.00636]
]}

---

# TEST CONTEXT: in methyl acetate, 303.15 K
PROPERTY NAME: solubility (mole fraction)

{"columns": ["CHEMICAL STRUCTURE", "QUANTITATIVE RESULT"],
 "data": [
  ["O=c1[nH]c2ccccc2c(=O)o1", 0.00573]
]}

---

# TEST CONTEXT: in methanol, 303.15 K

{"columns": ["CHEMICAL STRUCTURE", "solubility (mole fraction)"],
 "data": [
  ["O=c1[nH]c2ccccc2c(=O)o1", 0.00243]
]}

---

# TEST CONTEXT: in methanol, 318.15 K

{"columns": ["CHEMICAL STRUCTURE", "solubility (mole fraction)"],
 "data": [
  ["O=c1[nH]c2ccccc2c(=O)o1", 0.00425]
]}

---

# TEST CONTEXT: in 2-butanone, 313.15 K
PROPERTY NAME: solubility (mole fraction)

{"columns": ["CHEMICAL STRUCTURE", "QUANTITATIVE RESULT"],
 "data": [
  ["O=c1[nH]c2ccccc2c(=O)o1", 0.0117]
]}

---

# TEST CONTEXT: in ethanol, 318.15 K
PROPERTY NAME: solubility (mole fraction)

{"columns": ["CHEMICAL STRUCTURE", "QUANTITATIVE RESULT"],
 "data": [
  ["O=c1[nH]c2ccccc2c(=O)o1", 0.00328]
]}

---

# TEST CONTEXT: in methanol, 323.15 K

{"columns": ["CHEMICAL STRUCTURE", "solubility (mole fraction)"],
 "data": [
  ["O=c1[nH]c2ccccc2c(=O)o1", 0.00507]
]}

---

# TEST CONTEXT: in 1,4-dioxane, 288.15 K

{"columns": ["CHEMICAL STRUCTURE", "solubility (mole fraction)"],
 "data": [
  ["O=c1[nH]c2ccccc2c(=O)o1", 0.00839]
]}

---

# TEST CONTEXT: in n-propanol, 308.15 K

{"columns": ["CHEMICAL STRUCTURE", "solubility (mole fraction)"],
 "data": [
  ["O=c1[nH]c2ccccc2c(=O)o1", 0.00208]
]}

---

# TEST CONTEXT: in methyl acetate, 323.15 K

{"columns": ["CHEMICAL STRUCTURE", "solubility (mole fraction)"],
 "data": [
  ["O=c1[nH]c2ccccc2c(=O)o1", 0.00844]
]}

---

# TEST CONTEXT: in methanol, 308.15 K
PROPERTY NAME: solubility (mole fraction)

{"columns": ["CHEMICAL STRUCTURE", "QUANTITATIVE RESULT"],
 "data": [
  ["O=c1[nH]c2ccccc2c(=O)o1", 0.00295]
]}

---

# TEST CONTEXT: in 1,4-dioxane, 313.15 K

{"columns": ["CHEMICAL STRUCTURE", "solubility (mole fraction)"],
 "data": [
  ["O=c1[nH]c2ccccc2c(=O)o1", 0.0146]
]}

---

# TEST CONTEXT: in 1,4-dioxane, 323.15 K
PROPERTY NAME: solubility (mole fraction)

{"columns": ["CHEMICAL STRUCTURE", "PROPERTY NAME", "QUANTITATIVE RESULT"],
 "data": [
  ["O=c1[nH]c2ccccc2c(=O)o1", "solubility (mole fraction)", 0.0179]
]}

---

# TEST CONTEXT: in acetonitrile, 308.15 K
PROPERTY NAME: solubility (mole fraction)

{"columns": ["CHEMICAL STRUCTURE", "RESULT"],
 "data": [
  ["O=c1[nH]c2ccccc2c(=O)o1", 0.00485]
]}

---

# TEST CONTEXT: in methanol, 298.15 K
PROPERTY NAME: solubility (mole fraction)

{"columns": ["CHEMICAL STRUCTURE", "PROPERTY NAME", "QUANTITATIVE RESULT"],
 "data": [
  ["O=c1[nH]c2ccccc2c(=O)o1", "solubility (mole fraction)", 0.00204]
]}

---

# TEST CONTEXT: in isopropanol, 303.15 K

{"columns": ["CHEMICAL STRUCTURE", "solubility (mole fraction)"],
 "data": [
  ["O=c1[nH]c2ccccc2c(=O)o1", 0.00176]
]}

---

# TEST CONTEXT: in ethanol, 323.15 K

{"columns": ["CHEMICAL STRUCTURE", "solubility (mole fraction)"],
 "data": [
  ["O=c1[nH]c2ccccc2c(=O)o1", 0.00381]
]}

---

# TEST CONTEXT: in acetone, 293.15 K
PROPERTY NAME: solubility (mole fraction)

{"columns": ["CHEMICAL STRUCTURE", "PROPERTY NAME", "QUANTITATIVE RESULT"],
 "data": [
  ["O=c1[nH]c2ccccc2c(=O)o1", "solubility (mole fraction)", 0.00873]
]}

---

# TEST CONTEXT: in ethanol, 288.15 K

{"columns": ["CHEMICAL STRUCTURE", "solubility (mole fraction)"],
 "data": [
  ["O=c1[nH]c2ccccc2c(=O)o1", 0.00134]
]}

---

# TEST CONTEXT: in acetone, 318.15 K

{"columns": ["CHEMICAL STRUCTURE", "solubility (mole fraction)"],
 "data": [
  ["O=c1[nH]c2ccccc2c(=O)o1", 0.0149]
]}

---

# TEST CONTEXT: in isopropyl acetate, 318.15 K
PROPERTY NAME: solubility (mole fraction)

{"columns": ["CHEMICAL STRUCTURE", "PROPERTY NAME", "QUANTITATIVE RESULT"],
 "data": [
  ["O=c1[nH]c2ccccc2c(=O)o1", "solubility (mole fraction)", 0.0036]
]}

---

# TEST CONTEXT: in n-propanol, 303.15 K
PROPERTY NAME: solubility (mole fraction)

{"columns": ["CHEMICAL STRUCTURE", "QUANTITATIVE RESULT"],
 "data": [
  ["O=c1[nH]c2ccccc2c(=O)o1", 0.00181]
]}

---

# TEST CONTEXT: in isopropyl acetate, 313.15 K

{"columns": ["CHEMICAL STRUCTURE", "solubility (mole fraction)"],
 "data": [
  ["O=c1[nH]c2ccccc2c(=O)o1", 0.00325]
]}
